target: Alpha-bungarotoxin (Bungarus multicinctus) (UniProt P60615); experiment: alpha-bungarotoxin binders on microarray, profiling panel, artefact control for SMM control protein annotation, biochemical, small-molecule microarray, Alexa647 label, 635/667 nm fluorescence (AID 1117); conditions: alpha-BTX-A647 binding fluorescence, higher = more signal
Sequence (P60615 whole entry, looked up): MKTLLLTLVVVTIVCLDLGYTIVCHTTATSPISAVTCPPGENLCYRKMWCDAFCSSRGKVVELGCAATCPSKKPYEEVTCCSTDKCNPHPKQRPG
endpoint_name: composite z-score
In your answer, state the number alone without any accompanying words.

Prompt line: Which composite z-score reading was recorded for the compound COC(=O)[C@H]1COC(c2ccc(OCCCO)cc2)=N1 ?
Response line: -0.373

Prompt line: Which composite z-score reading was recorded for the compound CCOC(=O)NN=C1C[C@@H](O)[C@@H](O)[C@@H]2[C@@H]3C(=O)N(C4CCCCC4)C(=O)[C@@H]3CC[C@H]12 ?
Response line: -0.177

Prompt line: Which composite z-score reading was recorded for the compound C[N+](C)(C)CCCCCCNC(=O)[C@@H]1C[C@@H]2C(=O)N3CCC[C@H]3C(=O)N2[C@@H]1c1cccc(OCCO)c1 ?
Response line: -0.0576

Prompt line: Which composite z-score reading was recorded for the compound COCC(=C=CC[C@@H](O)c1ccccc1OCCO)CCO ?
Response line: 0.113

Prompt line: Which composite z-score reading was recorded for the compound COC(=O)[C@@]1(Cc2ccccc2)[C@H]2c3cc(C(=O)N4CCCC4)n(Cc4ccccn4)c3C[C@H]2CN1C(=O)c1ccccc1 ?
Response line: 0.914

Prompt line: Which composite z-score reading was recorded for the compound CCOC(=O)CCN1C(=O)[C@H]2[C@H]3[C@H](O)C=CC(=O)[C@@H]3CC[C@H]2C1=O ?
Response line: 0.335

Prompt line: Which composite z-score reading was recorded for the compound O=C1NC(=O)C2C1C=CC(C(O)Cc1ccccc1)N2Nc1ccccn1 (stereo unspecified) ?
Response line: 1.34

Prompt line: Which composite z-score reading was recorded for the compound CO[C@H]1O[C@H](CO)[C@@H](OC(=O)Nc2ccc3c(c2)OCO3)[C@H](OC(=O)Nc2ccccc2-c2ccccc2)[C@@H]1OC(=O)Nc1ccccc1-c1ccccc1 ?
Response line: 0.614

Prompt line: Which composite z-score reading was recorded for the compound C=CC[C@@H]1C=C[C@H](ON=C(C)CCN2CCc3nc(CC)c(CC)cc3C2)[C@@H](CO)O1 ?
Response line: 0.243

Prompt line: Which composite z-score reading was recorded for the compound COc1ccc(O[C@H]2C=C[C@@H](c3ccccc3)O[C@@H]2COC(=O)CCC(C)=NOCC[C@@H]2C=C[C@H](OC(C)=O)[C@@H](COC(C)=O)O2)cc1 ?
Response line: -0.0704

Prompt line: Which composite z-score reading was recorded for the compound O=C1CCCC2OC12C(O)CCc1ccccc1 (stereo unspecified) ?
Response line: 0.176

Prompt line: Which composite z-score reading was recorded for the compound N#Cc1ccc(NN2C(C(O)c3cc(C(F)(F)F)cc(C(F)(F)F)c3)C=CC3C(=O)N(c4ccccc4)C(=O)C32)cc1 (stereo unspecified) ?
Response line: 0.692

Prompt line: Which composite z-score reading was recorded for the compound CCc1cc2c(nc1CC)CCN(CCC(C)=NOC[C@@H](O)[C@H]1O[C@@H]3OC(C)(C)O[C@@H]3[C@H]1O)C2 ?
Response line: 0.677

Prompt line: Which composite z-score reading was recorded for the compound O=C1C[C@@H](O)[C@@H](O)[C@@H]2[C@@H]3C(=O)N(c4ccc(F)cc4F)C(=O)[C@@H]3CC[C@@H]12 ?
Response line: -0.157

Prompt line: Which composite z-score reading was recorded for the compound CCOC(=O)[C@H](Cc1ccccc1)NC(=O)CCC1CC(OC(=O)NCc2ccc3c(c2)OCO3)CC2(CCCC(COC(=O)NCc3cccc(C(F)(F)F)c3)O2)O1 (stereo partly specified) ?
Response line: 0.0294

Prompt line: Which composite z-score reading was recorded for the compound C[C@H]1CC[C@@H](C(=O)O)N[C@@H]1c1ccc(C#CCN(C)C)cc1 ?
Response line: 0.783
